Target: T1, Human C5 (human, UniProt P01031 19-1676)
T1 construct: The natural protein has a beta and an alpha chain; also called complement factor 5; complement component 5
Test: SPR, mAb captured by anti-hFc, 37C
Please provide measured kon for the entries that follow.
Give bare numbers, in M⁻¹ s⁻¹.

binder | kon [M⁻¹ s⁻¹]
H4H12170P (antibody, human IgG4, V domains shown) VH: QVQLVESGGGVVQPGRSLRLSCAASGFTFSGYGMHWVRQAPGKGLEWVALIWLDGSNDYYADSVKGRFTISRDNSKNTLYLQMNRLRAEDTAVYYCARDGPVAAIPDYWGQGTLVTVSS VL: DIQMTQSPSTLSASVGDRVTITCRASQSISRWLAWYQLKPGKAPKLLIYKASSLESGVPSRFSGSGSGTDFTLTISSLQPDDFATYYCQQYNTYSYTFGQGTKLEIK | 297000

Record kon per entry; entries follow.
1. H4H12166P9 (antibody, human IgG4, V domains shown, human IgG4 Fc with S108P hinge mutation) VH: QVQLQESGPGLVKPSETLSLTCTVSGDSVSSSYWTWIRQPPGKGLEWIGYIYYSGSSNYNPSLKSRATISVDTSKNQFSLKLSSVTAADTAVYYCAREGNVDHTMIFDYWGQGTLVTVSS VL: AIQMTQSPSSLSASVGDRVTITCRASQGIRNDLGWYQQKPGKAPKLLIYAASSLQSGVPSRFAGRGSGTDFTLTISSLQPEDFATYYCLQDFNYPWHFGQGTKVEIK
2. H4H12175P (antibody, human IgG4, V domains shown) VH: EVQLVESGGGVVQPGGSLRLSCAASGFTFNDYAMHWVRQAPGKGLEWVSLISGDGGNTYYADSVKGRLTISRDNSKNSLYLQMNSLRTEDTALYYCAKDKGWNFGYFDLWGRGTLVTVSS VL: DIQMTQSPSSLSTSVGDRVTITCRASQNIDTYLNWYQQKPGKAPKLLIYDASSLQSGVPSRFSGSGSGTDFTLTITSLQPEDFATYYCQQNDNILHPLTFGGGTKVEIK

[375000, 296000]
